Sourced from the RNAGym collection of RNA variant scans (doi:10.7554/elife.90254)

B1: LINE1-full (parent)
chain: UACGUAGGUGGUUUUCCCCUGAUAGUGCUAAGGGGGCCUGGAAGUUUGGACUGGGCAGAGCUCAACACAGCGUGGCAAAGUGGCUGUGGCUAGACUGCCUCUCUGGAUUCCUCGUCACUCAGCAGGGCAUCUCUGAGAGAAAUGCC

- Variants of: B1
- Assay summary: self-cleavage, relative activity (ratio to wild type); higher = more cleavage; in vitro, sequencing; the parent is a self-cleaving ribozyme
Rule: self-cleavage under 1 gives NOT MET, otherwise MET.

[[record]]
alteration = "U115C A138G"
category_label = "MET"


Prompt: Is the recorded value of self-cleavage equal to or greater than 1 for this variant? A22U U46C
Response: MET

Prompt: Is the recorded value of self-cleavage equal to or greater than 1 for this variant? A59G U73A
Response: NOT MET

Prompt: Is the recorded value of self-cleavage equal to or greater than 1 for this variant? G40A U109C
Response: NOT MET

Prompt: Is the recorded value of self-cleavage equal to or greater than 1 for this variant? C37U U47A
Response: MET

Prompt: Is the recorded value of self-cleavage equal to or greater than 1 for this variant? U102G A140G
Response: NOT MET

Prompt: Is the recorded value of self-cleavage equal to or greater than 1 for this variant? A24G U104C
Response: MET

Prompt: Is the recorded value of self-cleavage equal to or greater than 1 for this variant? U9C G125A
Response: MET

Prompt: Is the recorded value of self-cleavage equal to or greater than 1 for this variant? G72A U143C
Response: MET

Prompt: Is the recorded value of self-cleavage equal to or greater than 1 for this variant? A31U U109C
Response: MET

Prompt: Is the recorded value of self-cleavage equal to or greater than 1 for this variant? U108A A142G
Response: MET

Prompt: Is the recorded value of self-cleavage equal to or greater than 1 for this variant? A64G G80A
Response: NOT MET

Prompt: Is the recorded value of self-cleavage equal to or greater than 1 for this variant? G89A A141U
Response: NOT MET

Prompt: Is the recorded value of self-cleavage equal to or greater than 1 for this variant? G49U U96A
Response: NOT MET

Prompt: Is the recorded value of self-cleavage equal to or greater than 1 for this variant? U73C G86A
Response: NOT MET

Prompt: Is the recorded value of self-cleavage equal to or greater than 1 for this variant? A42U U73G
Response: NOT MET
